- System name: T1, His-tagged CEACAM1 (human, UniProt P13688 35-428)
- T1 construct: 45 kDa SPR analyte; also called CEACAM1-HIS; CEACAM1 analyte
- T1 sequence: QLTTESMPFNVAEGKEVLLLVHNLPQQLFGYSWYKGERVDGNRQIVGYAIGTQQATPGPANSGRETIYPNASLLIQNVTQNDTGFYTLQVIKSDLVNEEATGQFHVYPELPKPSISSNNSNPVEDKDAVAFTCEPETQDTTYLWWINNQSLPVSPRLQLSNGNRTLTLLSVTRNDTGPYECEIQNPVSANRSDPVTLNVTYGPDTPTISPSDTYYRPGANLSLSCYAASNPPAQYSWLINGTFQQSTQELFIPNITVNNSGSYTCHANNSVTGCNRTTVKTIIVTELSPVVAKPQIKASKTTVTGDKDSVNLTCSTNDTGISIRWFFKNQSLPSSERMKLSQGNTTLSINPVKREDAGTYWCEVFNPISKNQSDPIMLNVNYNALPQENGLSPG
- Experiment summary: SPR single-cycle, purified IgG captured
Measure: relative KD to parent
Answer using only a numeral; do not append any unit.

{"Binder": "8H3_9B3/Vκ8 S29A (antibody, IgG4, V domains shown, IgG4 (S241P), kappa) VH: EVQLLESGGGLVQPGGSLRLSCAASGFTFNAHAISWVRQAPGKGLEWVATISSGGTYTYYPDSVKGRFTISRDNSKNTLYLQMNSLKAEDTAMYYCARHDFDYFPYWFAHWGQGTLVTVSS VL: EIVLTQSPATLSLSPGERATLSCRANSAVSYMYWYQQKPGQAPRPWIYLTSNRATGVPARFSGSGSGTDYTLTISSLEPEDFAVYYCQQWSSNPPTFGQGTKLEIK", "Result": 7.1}

// switching to the query binder
Field relative KD to parent (entry CP08H03/Vκ8 S29A (antibody, IgG4, V domains shown, IgG4 (S241P), kappa; also called CP08_H03/Parent VL; CP08_H03/Parental) VH: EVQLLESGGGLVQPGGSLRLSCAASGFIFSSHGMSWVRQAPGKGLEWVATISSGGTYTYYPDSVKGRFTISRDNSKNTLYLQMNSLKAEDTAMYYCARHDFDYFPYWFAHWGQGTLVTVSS VL: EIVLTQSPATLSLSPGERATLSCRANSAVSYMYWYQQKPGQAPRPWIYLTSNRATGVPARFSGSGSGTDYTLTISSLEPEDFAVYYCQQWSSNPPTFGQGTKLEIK ) reads 4
